target: LmNMT (Leishmania major); construct: LmNMT (5–421) was cloned into a pET-15b-derived vector; 6xHis followed by TEV cleavage site (N); made in house; host or cells: E. coli Rosetta (DE3); experiment: Biolayer interferometry binding, LmNMT; conditions: BLI, absence of the cofactor myristoyl-CoA (MYA); read-out: K d LmNMT, MYA (absence of cofactor)
# pKd per record follows
# reply with the number alone; pKd is -log10 of concentration in mol/L

CNCc1cc(-c2ccccc2)nn1C; 3.15

Please find the next molecule below.
Form field: pKd recorded for "CNCc1cccc(CN2CCOCC2)c1" with LmNMT (Leishmania major) (enter value)
3.01

###

biological target: LmNMT (Leishmania major, UniProt Q4Q5S8); construct: LmNMT (5–421) was cloned into a pET-15b-derived vector; 6xHis followed by TEV cleavage site (N); made in house; host or cells: E. coli Rosetta (DE3); assay: Biolayer interferometry binding, LmNMT; conditions: BLI, presence of 1 µM myristoyl-CoA (MYA); read-out: K d LmNMT, +MYA
Sequence (Q4Q5S8 entry or part of it): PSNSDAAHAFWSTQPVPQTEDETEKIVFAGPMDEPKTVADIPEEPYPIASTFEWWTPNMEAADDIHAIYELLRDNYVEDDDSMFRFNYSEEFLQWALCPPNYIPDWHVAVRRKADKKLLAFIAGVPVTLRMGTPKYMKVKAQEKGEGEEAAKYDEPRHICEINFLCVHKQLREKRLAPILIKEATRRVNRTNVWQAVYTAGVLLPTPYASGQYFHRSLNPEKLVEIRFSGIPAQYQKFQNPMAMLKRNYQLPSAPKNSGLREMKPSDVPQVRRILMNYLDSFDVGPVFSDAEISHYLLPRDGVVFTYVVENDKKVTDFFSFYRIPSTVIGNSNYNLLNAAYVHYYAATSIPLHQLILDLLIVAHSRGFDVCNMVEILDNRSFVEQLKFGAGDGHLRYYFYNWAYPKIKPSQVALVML
Reported pKd values follow for various molecules
# log scale: pKd equals minus log10 of the concentration in mol/L

CNCc1cccc(CN2CCOCC2)c1; 3.70

Any idea what pKd came out for "CNCc1cc(-c2ccccc2)nn1C" on LmNMT (Leishmania major, UniProt Q4Q5S8)?
3.74

###

molecular target: LmNMT (Leishmania major, UniProt Q4Q5S8); construct: LmNMT (5–421) was cloned into a pET-15b-derived vector; 6xHis followed by TEV cleavage site (N); made in house; host or cells: E. coli Rosetta (DE3); experiment: Biolayer interferometry binding, LmNMT
Observable: pKd
Keep in mind that pKd stands for -log10 of concentration in molar terms.

What reported pKd corresponds to "Nc1ccccc1N1CCNCC1" on LmNMT (Leishmania major, UniProt Q4Q5S8)?
4.01

###

Reported values of Kd for individual entries
molecular target: UniProtKB Q388H8; experiment: Biolayer interferometry binding, TbNMT; set-up: The gene encoding TbNMT was cloned into a pET-15-derived expression vector; 6xHis followed by TEV cleavage site (N); made in house; host or cells: Escherichia coli Rosetta (DE3); details: BLI, absence of the cofactor myristoyl-CoA (MYA); read-out: K d TbNMT, MYA (absence of cofactor)
Respond with the bare value in µM.

CNCc1cc(-c2ccccc2)nn1C; 530

Name the reported Kd value associated with the compound "CNCc1cccc(CN2CCOCC2)c1"
760

###

target: TbNMT (Trypanosoma brucei brucei); assay: Biolayer interferometry binding, TbNMT; set-up: The gene encoding TbNMT was cloned into a pET-15-derived expression vector; 6xHis followed by TEV cleavage site (N); made in house; host or cells: Escherichia coli Rosetta (DE3)
Sequence (Q388H8 1-446): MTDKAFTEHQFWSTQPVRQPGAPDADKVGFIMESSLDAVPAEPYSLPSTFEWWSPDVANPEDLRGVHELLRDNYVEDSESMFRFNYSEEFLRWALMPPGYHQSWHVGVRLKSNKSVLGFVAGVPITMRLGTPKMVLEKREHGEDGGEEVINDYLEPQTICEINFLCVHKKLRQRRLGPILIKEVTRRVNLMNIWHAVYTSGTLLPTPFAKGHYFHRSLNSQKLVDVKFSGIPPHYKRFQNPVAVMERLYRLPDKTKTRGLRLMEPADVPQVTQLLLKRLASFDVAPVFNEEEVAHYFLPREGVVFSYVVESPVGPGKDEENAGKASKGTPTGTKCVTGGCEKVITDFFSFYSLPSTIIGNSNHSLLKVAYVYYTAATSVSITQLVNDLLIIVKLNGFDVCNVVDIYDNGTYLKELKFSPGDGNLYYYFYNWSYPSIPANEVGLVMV
Observable: pKd
// field semantics: pKd = negative decimal log of concentration (mol/L)

Would you mind telling me what pKd value was observed for Nc1ccccc1N1CCNCC1 [Fragment 4] ?
4.32

Measured values drawn from paper PMC4427169 for this set.
